Experiment: growth inhibitors of tim10-1 mutant yeast, primary screen, luminescence, uHTS (AID 463190);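 also: mutant grown at 25 °C; 0% = DMSO wells with yeast and 100% = wells holding no yeast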
Details: S. cerevisiae tim10-1 ts strain growth, BacTiter-Glo, 24 h; at 20 µM; active compounds read high
The whole screen tested about 330,000 compounds, of which about 7,300 (2.2%) were called active. Many of the other results were omitted from the sample, so actives are more common in it than they were.

# compound, inhibition
records = [
    ("CC(C)c1ccc(/C=C2\\NC(=O)NC2=O)cc1", "10.2% (inactive)"),
    ("Cc1ccnc(N2CCN(C(=O)CSc3nc4ccccc4nc3N3CCCCC3)CC2)c1", "2.78% (inactive)"),
    ("Clc1ccc(Nc2ccc3ccccc3n2)cc1", "54.1% (active)"),
    ("CCC1(CC)Cc2ccccc2-c2nc(CCl)[nH]c(=O)c21", "27.6% (inactive)"),
    ("CCOC(=O)C1Cn2c(nc3c(c2=O)C(C)(CC)Cc2ccccc2-3)S1 (stereo unspecified)", "40.7% (active)"),
    ("Cc1cc(Nc2ccc(Br)cc2)nc2ccccc12", "29.6% (inactive)"),
    ("Cc1nc([N+](=O)[O-])nn1C12CC3CC(CC(Br)(C3)C1)C2", "27% (inactive)"),
    ("Cc1ccc(CC(=O)Nc2ccc(OC(F)F)c(Cl)c2)cc1C", "15.6% (inactive)"),
    ("CCC1(CC)Cc2ccccc2-c2nc3ccccc3c(=O)n21", "16.4% (inactive)"),
    ("O=C(Cc1ccc(Cl)c(Cl)c1)Nc1ccc(SC(F)F)cc1", "43.5% (active)"),
    ("COCc1cc(=O)[nH]c(-c2ccc(C(F)(F)F)cc2)n1", "-4.56% (inactive)"),
]

----------
Experiment: growth inhibitors of tim10-1 mutant yeast, primary screen, luminescence, uHTS (AID 463190);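 also: mutant grown at 25 °C; 0% = DMSO wells with yeast and 100% = wells holding no yeast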
Conditions: S. cerevisiae tim10-1 ts strain growth, BacTiter-Glo, 24 h; at 20 µM; active compounds read high
The campaign covered roughly 330,000 compounds. About 7,300 (2.2%) were called active. The sample as a whole holds a higher share of actives than the screen did.
Here the recorded inhibition is given for each entry.

# compound, inhibition / %
data = [
    ("NS(=O)(=O)c1ccc(CCNC(=O)c2nc(CS(=O)(=O)c3ccc(Cl)cc3)no2)cc1", -1.2),
    ("CCC(=O)Nc1cccc(C2=NOC3(C2)C[C@@H](C(N)=O)N(C(=O)c2cc([N+](=O)[O-])cc([N+](=O)[O-])c2C)C3)c1 (stereo partly specified)", 9.39),
    ("CCSC1=C(C#N)C(=O)n2c1cc1c2CCCC1", 58.8),
    ("O=C(/C=C/c1ccc(Cl)cc1Cl)NCc1ccco1", 41.9),
    ("Cc1ccc(S(=O)(=O)NC2CCCCCC2)cc1", 21.3),
    ("CC1CCc2c(sc3nc4n(c(=O)c23)CCS4)C1 (stereo unspecified)", 40.6),
    ("Cc1ccccc1CN1CCC(C(=O)Nc2ccc(Oc3cccnc3)cc2)CC1", 8.05),
    ("O=C(NCc1ccco1)C1(c2ccc(Cl)cc2)CCCC1", 29.4),
    ("COC(=O)/C=C/C(=O)NCc1ccco1", -3.84),
    ("O=C(O)c1cccc(NC(=S)N/N=C/c2c[nH]c3ccccc23)c1", 19),
    ("Nc1nonc1-n1nnc(C(=O)N/N=C/c2c[nH]c3ccccc23)c1-c1ccccc1", 11.6),
]
